Test system: Vero E6 infected with SARS-CoV-2
test.method.notes: inhibition of SARS-CoV-2 cytopathic effect; higher = more antiviral protection, active = above 15
experimental.parameters: 8.33 nM; 48 h
The following molecules are shown together with reported inhibition of SARS-CoV-2 cytopathic effect values.
Just the number in %, nothing appended.

Completed entries (count: 5):
molecule="CC(=O)CC(=O)O [lithium-acetoacetate]" unit_name=% reported=-0.05
molecule="C[C@@]12C[C@@]3(O)O[C@@H](O1)[C@]1(COC(=O)c4ccccc4)[C@H]3C[C@@]12O[C@@H]1O[C@H](CO)[C@@H](O)[C@H](O)[C@H]1O [paeoniflorin]" unit_name=% reported=0.45
molecule="Nc1ccc(/N=N/c2ccccc2)c(N)n1 [phenazopyridine]" unit_name=% reported=0.46
molecule="OCC(O)CN1CCN(c2ccccc2)CC1 (centres undefined) [dropropizine]" unit_name=% reported=-2.56
molecule="CN(C)CC[C@@](O)(c1ccccc1)c1ccccc1Cl [clofedanol]" unit_name=% reported=1.3

Please find the next molecule below.
Exercise: Annotate the molecule CCCCC(CC)CCC(CC(C)C)OS(=O)(=O)O (centres undefined) [sodium-tetradecyl-sulfate] with its measured inhibition of SARS-CoV-2 cytopathic effect.
Key: 3.18
